# key: entry, value: pIC50
# TEST TARGET: Tyrosine-protein kinase JAK3 (Homo sapiens)
# ASSAY METHOD TEXT: In vitro inhibition of Janus kinase 3.
pIC50: −log10 of the molar value.

SMILES NOTATION	pIC50
O=c1c(CN2CCOCC2)coc2cc3ccccc3cc12	< 3.00
ON=C(CCN1CCOCC1)c1ccc2ccccc2c1	< 3.00
O=C(CCNCc1ccccc1)c1ccc2ccccc2c1	< 3.00
O=C(CCCN1CCOCC1)c1ccc2ccccc2c1	< 3.00
CC(C)(CN1CCOCC1)C(=O)c1ccc2ccccc2c1	< 3.00

###

# key: entry, value: IC50
# TEST TARGET: Tyrosine-protein kinase JAK3 (Homo sapiens, UniProt P52333)
# Sequence (P52333 whole entry): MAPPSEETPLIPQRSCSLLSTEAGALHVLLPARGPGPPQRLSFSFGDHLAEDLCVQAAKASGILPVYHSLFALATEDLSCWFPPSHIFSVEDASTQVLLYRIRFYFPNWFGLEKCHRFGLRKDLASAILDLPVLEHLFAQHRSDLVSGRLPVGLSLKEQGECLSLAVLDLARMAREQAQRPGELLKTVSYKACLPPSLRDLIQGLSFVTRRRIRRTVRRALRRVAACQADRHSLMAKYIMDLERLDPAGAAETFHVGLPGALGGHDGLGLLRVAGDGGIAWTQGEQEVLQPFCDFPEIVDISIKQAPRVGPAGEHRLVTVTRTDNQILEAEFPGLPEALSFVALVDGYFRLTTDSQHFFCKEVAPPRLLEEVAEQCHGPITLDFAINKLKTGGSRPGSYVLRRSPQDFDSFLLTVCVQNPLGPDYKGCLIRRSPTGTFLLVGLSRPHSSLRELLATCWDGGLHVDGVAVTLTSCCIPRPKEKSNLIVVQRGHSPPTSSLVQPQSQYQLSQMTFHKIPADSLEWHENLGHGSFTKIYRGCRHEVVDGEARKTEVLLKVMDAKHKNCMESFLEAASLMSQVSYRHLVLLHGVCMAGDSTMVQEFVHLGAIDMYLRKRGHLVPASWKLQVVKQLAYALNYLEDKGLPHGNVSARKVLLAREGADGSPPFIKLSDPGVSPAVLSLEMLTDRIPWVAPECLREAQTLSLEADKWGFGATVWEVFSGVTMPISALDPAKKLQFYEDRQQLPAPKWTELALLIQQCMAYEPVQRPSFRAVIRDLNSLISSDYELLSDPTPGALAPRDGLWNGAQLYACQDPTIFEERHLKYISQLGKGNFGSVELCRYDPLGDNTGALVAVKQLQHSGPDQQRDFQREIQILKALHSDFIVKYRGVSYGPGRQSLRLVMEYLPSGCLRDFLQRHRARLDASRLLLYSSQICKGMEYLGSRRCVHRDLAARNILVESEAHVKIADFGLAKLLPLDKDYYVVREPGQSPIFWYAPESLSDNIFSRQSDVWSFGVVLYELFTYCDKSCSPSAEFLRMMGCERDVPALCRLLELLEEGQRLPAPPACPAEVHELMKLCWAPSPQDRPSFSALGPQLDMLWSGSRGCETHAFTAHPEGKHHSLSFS
# ASSAY METHOD TEXT: ChEBML_91954

MOLECULE	TEST TARGET	IC50 / µM
C=CC(O)c1ccc2ccccc2c1 (stereo not drawn)	Tyrosine-protein kinase JAK3 (Homo sapiens, UniProt P52333)	501
O=C(CCN1CCOCC1)c1cccc2ccccc12	Tyrosine-protein kinase JAK3 (Homo sapiens, UniProt P52333)	3.16
C=CC(=O)c1ccc2ccccc2c1	Tyrosine-protein kinase JAK3 (Homo sapiens, UniProt P52333)	0.0794
CC(C)N(CCC(=O)c1ccc2ccccc2c1)Cc1ccccc1	Tyrosine-protein kinase JAK3 (Homo sapiens, UniProt P52333)	0.0794
O=C(CCN1CCOCC1)c1ccc2ccccc2c1	Tyrosine-protein kinase JAK3 (Homo sapiens, UniProt P52333)	2
O=C(CCN1CCOCC1)c1ccc2ccc3ccccc3c2c1	Tyrosine-protein kinase JAK3 (Homo sapiens, UniProt P52333)	0.501
COc1ccc2cc(C(=O)CCN3CCOCC3)ccc2c1	Tyrosine-protein kinase JAK3 (Homo sapiens, UniProt P52333)	15.8
COc1cc2ccc(C(=O)CCN3CCOCC3)cc2cc1OC	Tyrosine-protein kinase JAK3 (Homo sapiens, UniProt P52333)	200
O=C(C=Cc1ccccc1Cl)CCN1CCOCC1	Tyrosine-protein kinase JAK3 (Homo sapiens, UniProt P52333)	12.6
N#C/C(=C\c1ccc(O)c(O)c1)C(=O)NCc1ccccc1	Tyrosine-protein kinase JAK3 (Homo sapiens, UniProt P52333)	12.6
O=C(CCN1CCCCCC1)c1ccc2ccccc2c1	Tyrosine-protein kinase JAK3 (Homo sapiens, UniProt P52333)	0.794
CN(C)CCC(=O)c1ccc2ccccc2c1	Tyrosine-protein kinase JAK3 (Homo sapiens, UniProt P52333)	0.63
CC(=Cc1ccccc1)C(=O)CCN1CCOCC1	Tyrosine-protein kinase JAK3 (Homo sapiens, UniProt P52333)	12.6
